Listed below: normalized growth values for each entry.
testName: chemical genetic growth profiling, strain panel (AID 1159580);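 further: tested at 20 µM; growth read once vehicle control cultures reached saturation at 30 °C; 1 = growth at the plate median or of vehicle wells; lower values mean less growth of the strain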
measurementContext: S. cerevisiae deletion strains, growth OD, locus YHR087W, strain rtc3, hits give low values
Out of some 5,500 compounds screened, about 2,000 (36%) were called active. Inconclusive results (about 18%) are left out. The list shows a part of the results.
Just the number, please, no unit attached.

Entry CCSc1ncccc1C(=O)N[C@@H](CCSC)C(=O)OC ; normalized growth = 1

Value of normalized growth reported for the compound NC(=NS(=O)(=O)c1cc(Cl)c(Oc2ccc([N+](=O)[O-])cc2Cl)c(Cl)c1)c1cccnc1 is 1.01

For reference, reported normalized growth for Cc1ccc(OS(=O)(=O)c2ccc(Cl)cc2)c([N+](=O)[O-])n1 stands at 0.975

So, CSc1cc(C(F)(F)F)cc(SC)c1SC ? Its normalized growth was 0.953

normalized growth reading for CCOC(=O)C1C(=O)C=C(c2cccs2)CC1c1ccc(OC)c(OC)c1Cl (stereo not drawn) : 0.998
